Attribution: the DeepSol protein solubility set

test: soluble on expression in E. coli; label from the status in PepcDB or PDB records
PROPERTY_NAME: soluble on expression in E. coli

SEQUENCE_ENTRY | PROPERTY_NAME | RESULT
MNAVKIEKGVAQYIEHNLYYYFEYVRDIQRLKKDILFGRANYDENVGGGRGNLPSRPTERRTIELITHRRLERLEQIVHAIQTVYRSLSPEKQKAVQLKYWSGKSYTWEQVAREIGVSVRQLYRWRDQIIYDIAKLLGEVNSNS | soluble on expression in E. coli | not soluble
MGSDKIHHHHHHMRRLPHVTWLRSFEAAARHSSFSAAAEELHLTPAAVSQQIRQLEHHLGFQLFKRLPKGVELTDIGQAYAIPVRKSFVQMQEATDGLFRVQSKSVLRVRCSISFAALILAPLLRDFAEIHPDIDVELSTAVWSDRMEGAGVDLDIRYGAACWPEQNVHPLPVEEATLVCHPDYAAQLGSALDPAWLGAADIVQIVGSETDWDRYLRLCGIDTPRPRHWMKADSSLIALQILSAGRGCALISRSFARQALSEGRLVAPFDLSLPMQESFVLVERDDLRENPGLRKLVDWLLTQRL | soluble on expression in E. coli | not soluble

====

assay: soluble on expression in E. coli; label from the status in PepcDB or PDB records

SEQUENCE_ENTRY | soluble on expression in E. coli
MGSDKIHHHHHHMESYYAVLDAMAAAPGDGVFAIIIDVEGSAYQKEGTWMWIEASGKTTGLLSGGCFEEAVAAHALDVLSNRQATSISFDLRAEDDWSWGQGAGCNGLVRIWLEPVTSNTKPDWLALKRCLDRGEHVFMARSITDPREQPFFQSETGERFGGYSSPPRPEWLKELHGTPFFRGRNGVYETEEDTFFIQHFWPKPRLTIFGAGPDAPPLVSAAKAAGFSVTVSDWRPAFCQPSHVPDADAWVVGFPHETIPKLHLTERDFVVIMTHQFERDRELMRWLADIPLAYLGVLGPRRRTDRLFPSGTAPPFVRSPIGLPIGARSPHEIAISITAELINVLRGGPMETAR | not soluble
MGSDKIHHHHHHMDSWNMKGSKMVDVNEITKYLPGFNCGACGYKRCDLFAEALLNKDVKLEDCPFLLRERFKENYEKLKEILKIKGKIKKEEKYIGVIDGYEADFLLKPLPNECSCRETLLIMDKKELKVGDYIRYRPLGCPIPHFAKIIDEYHGFYIIHVVGPSHRITGEKIEYKDVGIAIVVAFEGIVEGKVPEVGKTVKFIPKHCMMQKVHSGVVVQVEGKRVYIEGIDLKVF | not soluble

====

experiment: soluble on expression in E. coli; label from the status in PepcDB or PDB records
PROPERTY_NAME: soluble on expression in E. coli

SEQUENCE_ENTRY | RESULT
VIEPARGLGDGNIERKIRGLLDSWMTWNHSFQGSCMFLDAWNDAADKNCPLQAALRKAIDTWLSYLEIQIAKGKENQEFISDLDTRQATFDLYGQYLSAHVFYSIKGEEESLRLFWQGIDNLLARWRG | not soluble
MTKTQLVCDKNQLNWGLKAAKAIAGKSPYDVVQMRVSPDRDYLYICAVNAEATLVAKVELLVANISSEEDEIITIDKAKIPALILATAETGKKSEDSRPMAGICIRGKEVDFTDENGAGRGVDLTTIHRNDSAEIGDPVRTIIRVKQ | not soluble
MGHHHHHHSHMSVSVHENRKSRASSGSINIYLFHKSSYADSVLTHLNLLRQQRLFTDVLLHAGNRTFPCHRAVLAACSRYFEAMFSGGLKESQDSEVNFDNSIHPEVLELLLDYAYSSRVIINEENAESLLEAGDMLEFQDIRDACAEFLEKNLHP | not soluble
MEHIRRVAELAREIARNNGLDPERAYLAGLLHDAARDLPEEELRRLAPPENEVEEAHPLALHGRAARALAASWGVRDEEVLEAIEGHVYGVDPENGIGMALYVADVSEPGRGVNEEIRELALAGRLKEAYRLAVRNKVHYLKAKKIPIHPRTLEVYHSL | soluble
MANEIPTKGILKSEALKQYIMETSAYPREHELLKELRKATVQKYGNLSEMEVPVDEGHFLSMLVKIMNAKNTIEIGVFTGYSLLTTALALPEDGRITAIDIDKEAYEVGLEFIKKAGVDHKINFIHSDGLKALDQLVNDKCEFDFAFADADKSSYVNFHERLLKLVKVGGIIAFDNTLWFGFVAEDEDGVPEHMREYRAALIEFNKKLALDPRVEVSQISIGDGITLCRRLV | soluble
MDTGELHDLTVKGAVVTQLERCEVACQRLFQNLALLGLELQNSESITEGVCDSKAASDLGSSVELLENEERALRLCVDRFVLELRQVENLAKTLDGIREEEERILSLEQRSIEQAERCFYLWNDAREMLRGTRLTSIKEVLESAARYPRIPSWTPLPTSN | not soluble
MQSWYLLYCKRGQLQRAQEHLERQAVSCLTPMITLEKMVRGKRTSVSEPLFPNYLFVEFDPEVIHTTTINATRGVSHFVRFGAHPAIVPSSVIHQLSIYKPEGVVDPETPYPGDSVIITEGAFEGLKAIFTEPDGETRSMLLLNLLNKEVKQSVKNTGFRKI | not soluble
MGNTLGLAPMGTLPRRSPRREEPLPNPGSFDELHRLCKDVFPAQMEGVKLVVNKVLSSHFQVAHTIHMSALGLPGYHLHAAYAGDWQLSPTEVFPTVVGDMDSSGSLNAQVLLLLAERLRAKAVFQTQQAKFLTWQFDGEYRGDDYTATLTLGNPDLIGESVIMVAHFLQSLTHRLVLGGELVYHRRPGEEGAILTLAGKYSAVHWVATLNVGSGGAHASYYHRANEQVQVGVEFEANTRLQDTTFSFGYHLTLPQANMVFRGLVDSNWCVGAVLEKKMPPLPVTLALGAFLNHWRNRFHCGFSITVG | soluble
MQDYTVHIVDDEEPVRKSLAFMLTMNGFAVKMHQSAEAFLAFAPDVRNGVLVTDLRMPDMSGVELLRNLGDLKINIPSIVITGHGDVPMAVEAMKAGAVDFIEKPFEDTVIIEAIERASEHLVALE | soluble
RKMFRALMPALEELTFDPSSAHPSLVVSSSGRRVECSEQKAPPAGEDPRQFDKAVAVVAHQQLSEGEHYWEVDVGDKPRWALGVIAAEAPRRGRLHAVPSQGLWLLGLREGKILEAHVEAKEPRALRSPERRPTRIGLYLSFGDGVLSFYDASDADALVPLFAFHERLPRPVYPFFDVCWHDKGKNAQPLLLV | soluble

Input MGSDKIHHHHHHMKHGGFSAASEAENISKSKLSRRIIDLENKFNVSLIQRTTRHFKVTDLGQEFYEECCKVIAQVECAENVLLKQKSEPQGLVKVSCPPLMMHFQIRKILNQFLKTYPKVEISLELTSRRVDILHDDIDLAIRTNFEPNEDSNLIVRDVIKTDHCLVASPELLQGRTIKHYSELQDFPSISLGTQKQNYIWHLCNIRNGESVDVPYQPRIKSNDLAGVYYAVMDGLGIADLPFLTVESEIRKGTLVHILPDWKSNIGMLQLVYVSRKGQRLVVEKLIETLIDELRRLPESHEGYLPT . Output soluble on expression in E. coli: not soluble

Input MGKSLDEQFEAAVWIINALPKNGPIKTSINDQLQMYSLYKQATSGKCDTIQPYFFQIEQRMKWNAWNQLGNMDEAEAKAQYVEKMLKLCNQAEAEHNLMEFLSDPTIADLLPKQNQLREHFATLGRTTVKGFEGETVEINGVSISF . Output soluble on expression in E. coli: not soluble

Input MSNDHLETTGSSDPNTNLLKYLPIVLNPDRTITRPIQIPSTAASPDPTSSSPVLTKDLALNPLHNTFVRLFLPRHALYNSAKLPLVVYFHGGGFILFSAASTIFHDFCCEMAVHAGVVIASVDYRLAPEHRLPAAYDDAMEALQWIKDSRDEWLTNFADFSNCFIMGESAGGNIAYHAGLRAAAVADELLPLKIKGLVLDEPGFGGSKRTGSELRLANDSRLPTFVLDLIWELSLPMGADRDHEYCNPTAESEPLYSFDKIRSLGWRVMVVGCHGDPMIDRQMELAERLEKKGVDVVAQFDVGGYHAVKLEDPEKAKQFFVILKKFVVDSCTTKLKLN . Output soluble on expression in E. coli: soluble

Input MLRIAVDCMGGDYAPLEIVRGCILAAKELGYKIYLVGDKEQIIPILEKAKEHNNSLLEVVHAPDKVEMHEPPSNVLKKKNSSLYVAGMLVRKGEADGLVSAGNTGAVLAVGKFIVGAEEEVERPSIGVALPNPKGKTVLIDVGANVDCKPKHLVQFAVIGHTYAEEILGIKNPRVGILSIGEEEGKGNELVKETYPLLKATKLNFKGNAEGRDIYAGTFDVIVCDGFVGNVILKASESLGLAVVQMIKEEIKRSILAKLGALLLMPALNRFKKKADFAEYGGIPLLGAKKPVIITHGRANAKAIKNAVRVAGEFLNTDFNKKLVYNLKTLIPEGVKV . Output soluble on expression in E. coli: soluble
